target: Chromo domain-containing protein 1 (Saccharomyces cerevisiae (strain ATCC 204508 / S288c) (Baker's yeast)); assay: ScCHD-1 Enzyme Inhibition Assay; format: functional; set-up: scale not given: in the data most compounds retested in dose-response had high values; conditions: 30 µM
observable: Percent Effect

Cn1ncc(NCc2cc(F)cc(F)c2)c(Cl)c1=O    -11.4%
O=c1cccnn1CC1CN(Cc2ccsc2)Cc2nccn2C1 (centres undefined)    4.94%

stdin: Find the measured Percent Effect of Cc1cc(C)n2cc(CN3CCCC3Cn3nc(C)nc3C)nc2n1 (centres undefined) and report it.
stdout: -6.76%

stdin: Find the measured Percent Effect of Cc1ncc(-c2ccnc(N3CCCCCC3)n2)c(-c2cccnc2)n1 and report it.
stdout: -11.6%

stdin: Find the measured Percent Effect of Cc1nccc(CN2CC[C@H](Oc3cccc(F)c3)[C@@](C)(O)C2)n1 and report it.
stdout: -17.3%

stdin: Find the measured Percent Effect of CCC1CN(C(=O)c2ccccc2N2CCCC2)CCN1C(C)C (centres undefined) and report it.
stdout: -5.34%

stdin: Find the measured Percent Effect of CCc1nc(C2CCCN2C(=O)CCCn2cccn2)no1 (centres undefined) and report it.
stdout: -9.39%

stdin: Find the measured Percent Effect of O=C(c1cnco1)N1CCCC(Cc2nccs2)C1 (centres undefined) and report it.
stdout: -20.4%

stdin: Find the measured Percent Effect of CCc1cc(C(F)(F)F)c2c(C)nn(CC(=O)O)c2n1 and report it.
stdout: -20.4%

stdin: Find the measured Percent Effect of Cc1cc(NC(=O)N(CC2CCOC2)C2CC2)no1 (centres undefined) and report it.
stdout: -7.01%

stdin: Find the measured Percent Effect of Cc1cccc(CN2C(=O)CCC23CCN(c2ncc(F)cn2)CC3)n1 and report it.
stdout: -8.12%

stdin: Find the measured Percent Effect of CN(C)c1ccc(C(=O)N2CCN(Cc3cscn3)CC2)cc1F and report it.
stdout: -2.52%

stdin: Find the measured Percent Effect of COCCN1CCCN(C(=O)NC(C)Cn2ccnc2)CC1 (centres undefined) and report it.
stdout: -5.5%

stdin: Find the measured Percent Effect of CCc1nc(C2CCCN2C(=O)c2nc(C)n3ccccc23)no1 (centres undefined) and report it.
stdout: -15.8%

stdin: Find the measured Percent Effect of CCS(=O)(=O)c1ncc(CN(C)Cc2ccccn2)n1CCOC and report it.
stdout: -2.76%

stdin: Find the measured Percent Effect of Cn1c(CN2CCCC2c2noc(C3CC3)n2)cc(=O)n(C)c1=O (centres undefined) and report it.
stdout: -5.06%

stdin: Find the measured Percent Effect of Cc1noc(C2CCN(C(=O)CCNS(C)(=O)=O)CC2)n1 and report it.
stdout: -0.743%

stdin: Find the measured Percent Effect of Cc1cc(C)n(CC2CN(Cc3nc(-c4ccco4)no3)CCO2)n1 (centres undefined) and report it.
stdout: -11.8%

stdin: Find the measured Percent Effect of O=C(Cn1c(=O)nc2n1C(=O)N(c1ccccc1)C2)Nc1ccccc1 and report it.
stdout: 75.6%

* * *

target: Chromo domain-containing protein 1 (Saccharomyces cerevisiae (strain ATCC 204508 / S288c) (Baker's yeast)); assay: ScCHD-1 Enzyme Inhibition Assay; assay type: functional; parameters: scale not given: in the data most compounds retested in dose-response had high values; conditions: 30 µM
Some compounds, each annotated with its measured Percent Effect.
Provide the reading as a plain figure in %.

COc1ccc(CN2CCC3(CC2)CCN(CC2CC2)C3=O)cc1    -2.76
CCOCC1CC2(CCN(Cc3ccccn3)CC2)CO1 (stereo not drawn)    16.1
CCc1nc(CC(=O)N2CCCC2Cn2cccn2)cs1 (stereo not drawn)    -10
Cc1cc(CN(C)C(=O)c2ccc(C(F)(F)F)nc2)no1    14.8
Cc1ccc(NC2CCN(C(=O)c3cccc4ncccc34)CC2)nn1    -8.9

stdin: Find the measured Percent Effect of Cc1nc(O)c2nnn(C[C@H]3CCCN3C(=O)C(C)(C)C)c2n1 and report it.
stdout: -20.8

stdin: Find the measured Percent Effect of COc1cccc(-n2nnc(C(=O)N3CCN(C)CC3C)c2C)c1 (stereo not drawn) and report it.
stdout: 12.3

stdin: Find the measured Percent Effect of CS(=O)(=O)N1CCC(c2nnc3ccc(C(=O)N4CCCC4)cn23)C1 (stereo not drawn) and report it.
stdout: -3.44

stdin: Find the measured Percent Effect of c1ccc(OC2CCCC2)c(CNC2CCc3ncnn3C2)c1 (stereo not drawn) and report it.
stdout: -3.21
